# Test system: Diplodia mutila
# experimental details: Fungicidal activity against Diplodia mutila Q assessed as mycelial growth inhibition after 48 hr
# Type: functional, organism-based
# setup conditions: pooled result: one value given for 3 cell lines, strains, targets or settings
Answer each item with its documented EC50.
Kindly provide the numeric value in mgAi/L only, without the unit symbol.

Query :: Field: EC50 (Diplodia mutila). Entry: N#Cc1sc2c(=O)c3ccccc3c(=O)c=2sc1C#N
Result :: 44.87

Query :: # value lookup — system Diplodia mutila, readout EC50, item CC(C)NC(=O)N1CC(=O)N(c2cc(Cl)cc(Cl)c2)C1=O
Result :: 0.247

Query :: State its EC50 on Diplodia mutila: COCC(=O)N(c1c(C)cccc1C)C(C)C(=O)OC (stereo unspecified) [METALAXYL]
Result :: 61.995

Query :: Give EC50 (Diplodia mutila) of the following compound: CC(C)(C)C(O)(CCc1ccc(Cl)cc1)Cn1cncn1 (stereo unspecified)
Result :: 0.01

Query :: Value wanted: EC50 (Diplodia mutila) of entry COC(=O)NC(=S)Nc1ccccc1NC(=S)NC(=O)OC [THIOPHANATE METHYL]
Result :: 0.485

Query :: Request: EC50, test system Diplodia mutila, entry N#Cc1c(Cl)c(Cl)c(Cl)c(C#N)c1Cl
Result :: 0.258

Query :: Give Diplodia mutila EC50 for OC(c1ccc(Cl)cc1)(c1cncnc1)c1ccccc1Cl (stereo unspecified)
Result :: 0.076

Query :: GET /values?readout=EC50&system=Diplodia mutila&item= C[Si](Cn1cncn1)(c1ccc(F)cc1)c1ccc(F)cc1
Result :: 0.001

Query :: # query: EC50 | item CC12CC1(C)C(=O)N(c1cc(Cl)cc(Cl)c1)C2=O (stereo unspecified) | system: Diplodia mutila
Result :: 0.227

Query :: Recall the recorded EC50 for O=CNC(N1CCN(C(NC=O)C(Cl)(Cl)Cl)CC1)C(Cl)(Cl)Cl (stereo unspecified) with Diplodia mutila and state it.
Result :: 0.039

Query :: Missing value: EC50, Diplodia mutila, entry CCCN(CCOc1c(Cl)cc(Cl)cc1Cl)C(=O)n1ccnc1 . Fill in?
Result :: 0.001
